biological target: Adrenergic receptors; alpha-1 A & B (Homo sapiens) (UniProt P35348+P35368); test: Relative binding to alpha-1b and alpha-1a receptors (ratio of Ki); type: protein assay
endpoint-label: Ratio

A. COC(=O)[C@@H]1CCCN1Cc1ccc(CN2CCN(c3ccccc3OC)CC2)s1
B. CC(C)Oc1ccccc1N1CCN(Cc2cc(CN3CCCCCC3=O)cs2)CC1
-- ask Returns: the argument ( A or B ) having the larger Ratio. Use the label to indicate which entry you chose.
-- reply B
(B: 342, A: 49)

P. COc1ccccc1N1CCN(Cc2ccc(CN3CCCCC3O)s2)CC1 (stereo not drawn)
Q. CC(C)Oc1ccccc1N1CCN(Cc2cc(CN3CCCC3=O)cs2)CC1
-- ask Given P and given Q , which shows the smaller recorded Ratio? Mark your answer with the label of the selected entry.
-- reply P

P. COc1ccccc1N1CCN(Cc2ccc(C=O)s2)CC1
Q. CC(C)Oc1ccccc1N1CCN(Cc2ccc(CN3CCCCC3=O)s2)CC1
-- ask Please choose the item with the lower Ratio value from this pair: P and Q Write down the label attached to your selection.
-- reply P
(P: 3.2, Q: 1250)

I. COc1ccccc1N1CCN(Cc2ccc(CO)s2)CC1
II. CC(C)Oc1ccccc1N1CCN(Cc2cc(CN3CCCCC3=O)cs2)CC1
-- ask Name the one with the greater Ratio value, either I or II as given. Mark your selection by writing its label.
-- reply II

====

Molecular target: Alpha-1A adrenergic receptor (Homo sapiens, UniProt P35348)
Sequence (P35348 whole entry): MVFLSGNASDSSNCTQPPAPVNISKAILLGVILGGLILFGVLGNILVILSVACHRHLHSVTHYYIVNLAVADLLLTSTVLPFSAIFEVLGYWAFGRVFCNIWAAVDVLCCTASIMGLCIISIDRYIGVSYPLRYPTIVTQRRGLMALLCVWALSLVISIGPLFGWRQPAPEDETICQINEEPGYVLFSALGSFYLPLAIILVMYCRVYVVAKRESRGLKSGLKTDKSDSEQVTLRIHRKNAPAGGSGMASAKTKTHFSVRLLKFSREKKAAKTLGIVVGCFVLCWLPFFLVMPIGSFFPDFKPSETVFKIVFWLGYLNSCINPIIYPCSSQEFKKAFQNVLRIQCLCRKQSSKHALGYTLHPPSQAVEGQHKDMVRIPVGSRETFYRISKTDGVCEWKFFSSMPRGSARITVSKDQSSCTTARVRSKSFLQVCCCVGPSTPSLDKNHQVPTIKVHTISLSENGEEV
endpoint-label: Ki (µM)

1. CC(C)Oc1ccccc1N1CCN(Cc2cc(CN3CCCCCC3=O)cs2)CC1
2. COc1ccccc1N1CCN(Cc2ccc(CN3CCCCC3O)s2)CC1 (configuration not stated)
-- ask // pick larger Ki from pair: 1 vs 2 Write down the label of the entry you select.
-- reply 2

1. COc1ccccc1N1CCN(Cc2ccc(CN3CCCC3=O)s2)CC1
2. CC(C)Oc1ccccc1N1CCN(Cc2cc(CN3CCCCC3=O)cs2)CC1
3. COc1ccccc1N1CCN(Cc2ccc(CN3CCCCC3=O)s2)CC1
-- ask Rank items: key Ki, increasing. Response format: the labels, sorted as the prompt asks.
-- reply 2, 3, 1
(2: 0.0005 µM, 3: 0.014 µM, 1: 0.04 µM)

====

target: Alpha adrenergic receptor (1a and 1d) (Homo sapiens) (UniProt P35348+P25100); assay: Relative binding to alpha1d and alpha-1a receptors (ratio of Ki); format: protein assay
Sequence (P25100 whole entry, looked up, one chain of several): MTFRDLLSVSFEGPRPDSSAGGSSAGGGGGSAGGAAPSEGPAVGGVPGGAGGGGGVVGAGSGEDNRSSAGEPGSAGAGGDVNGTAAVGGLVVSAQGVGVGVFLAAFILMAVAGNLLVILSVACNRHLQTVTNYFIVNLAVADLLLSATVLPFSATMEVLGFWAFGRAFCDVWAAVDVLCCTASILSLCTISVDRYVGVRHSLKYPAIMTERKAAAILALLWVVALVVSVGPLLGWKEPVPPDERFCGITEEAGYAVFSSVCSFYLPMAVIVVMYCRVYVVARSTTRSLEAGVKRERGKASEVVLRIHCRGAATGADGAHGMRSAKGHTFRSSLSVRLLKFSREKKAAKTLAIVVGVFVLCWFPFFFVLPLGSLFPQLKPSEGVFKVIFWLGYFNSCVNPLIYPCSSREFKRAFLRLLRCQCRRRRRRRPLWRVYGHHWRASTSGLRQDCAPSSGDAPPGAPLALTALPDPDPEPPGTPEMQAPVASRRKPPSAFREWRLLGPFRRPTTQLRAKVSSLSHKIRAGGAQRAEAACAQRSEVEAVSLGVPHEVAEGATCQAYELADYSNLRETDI
endpoint-label: Ratio

# example entries with known answers
{"molecule": "COC(=O)[C@@H]1CCCN1Cc1ccc(CN2CCN(c3ccccc3OC)CC2)s1", "Ratio": 1.3}
{"molecule": "CC(C)Oc1ccccc1N1CCN(Cc2cc(CN3CCCC3=O)cs2)CC1", "Ratio": 147}
{"molecule": "COc1ccccc1N1CCN(Cc2ccc(CN3CCCCC3O)s2)CC1 (stereo not drawn)", "Ratio": 0.3}

P. COc1ccccc1N1CCN(Cc2ccc(C=O)s2)CC1
Q. CC(C)Oc1ccccc1N1CCN(Cc2cc(CN3CCCCC3=O)cs2)CC1
-- ask Field: lower Ratio | Options: P / Q When you have decided, please share the label of that item.
-- reply P
(P: 0.4, Q: 184)

====

Biological target: Alpha-1B adrenergic receptor (Homo sapiens)
Sequence (P35368 whole entry): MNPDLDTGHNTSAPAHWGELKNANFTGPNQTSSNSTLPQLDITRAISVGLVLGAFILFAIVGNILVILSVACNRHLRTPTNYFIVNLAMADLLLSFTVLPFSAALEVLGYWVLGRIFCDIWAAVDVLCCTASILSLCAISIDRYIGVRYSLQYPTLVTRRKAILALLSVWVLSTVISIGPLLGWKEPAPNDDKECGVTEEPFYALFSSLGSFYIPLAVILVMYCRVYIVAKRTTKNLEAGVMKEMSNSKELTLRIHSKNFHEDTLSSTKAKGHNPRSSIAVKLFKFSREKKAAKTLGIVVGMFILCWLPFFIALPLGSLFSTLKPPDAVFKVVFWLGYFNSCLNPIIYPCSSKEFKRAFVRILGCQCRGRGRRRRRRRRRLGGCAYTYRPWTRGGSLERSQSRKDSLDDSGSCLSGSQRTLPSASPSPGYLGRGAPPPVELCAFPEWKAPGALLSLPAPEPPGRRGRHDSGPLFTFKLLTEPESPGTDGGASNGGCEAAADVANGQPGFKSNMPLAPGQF
endpoint-label: Ki (µM)

In the examples that follow, each entry is paired with its recorded Ki.
{"compound": "CC(C)Oc1ccccc1N1CCN(Cc2cc(CN3CCCC3=O)cs2)CC1", "subject-of-test": "Alpha-1B adrenergic receptor (Homo sapiens)", "Ki [µM]": 0.259}
{"compound": "CC(C)Oc1ccccc1N1CCN(Cc2ccc(CN3CCCCC3=O)s2)CC1", "subject-of-test": "Alpha-1B adrenergic receptor (Homo sapiens)", "Ki [µM]": 0.413}
{"compound": "COc1ccccc1N1CCN(Cc2ccc(Br)s2)CC1", "subject-of-test": "Alpha-1B adrenergic receptor (Homo sapiens)", "Ki [µM]": 0.757}

A. CC(C)Oc1ccccc1N1CCN(Cc2cc(CN3CCCCC3=O)cs2)CC1
B. COc1ccccc1N1CCN(Cc2ccc(CN3CCCCC3O)s2)CC1 (stereo unspecified)
-- ask Between A and B , which one has the lower reported Ki value? // respond with label for picked entry
-- reply A
(A: 0.384 µM, B: 2.57 µM)

====

Alpha-1D adrenergic receptor (Homo sapiens) data, read-out Ki
endpoint-label: Ki (µM)

{"smiles-notation": "COc1ccccc1N1CCN(Cc2ccc(CN3CCCC3=O)s2)CC1", "unit-symbol": "µM", "Ki": 0.023}

I. CC(C)Oc1ccccc1N1CCN(Cc2cc(CN3CCCCC3=O)cs2)CC1
II. COC(=O)[C@@H]1CCCN1Cc1ccc(CN2CCN(c3ccccc3OC)CC2)s1
-- ask Lab note: check whether I or II has the lower measured Ki. Please identify the chosen entry by its label.
-- reply II

====

molecular target: Adrenergic receptors; alpha-1 A & B (Homo sapiens) (UniProt P35348+P35368); test: Relative binding to alpha-1b and alpha-1a receptors (ratio of Ki); type: protein assay
Listing: Ratio of selected compounds

{"smiles-notation": "COc1ccccc1N1CCN(Cc2ccc(CN3CCCCCC3=O)s2)CC1", "subject-of-test": "Adrenergic receptors; alpha-1 A & B (Homo sapiens) (UniProt P35348+P35368)", "Ratio": "> 278"}
{"smiles-notation": "COc1ccccc1N1CCN(Cc2ccc(Br)s2)CC1", "subject-of-test": "Adrenergic receptors; alpha-1 A & B (Homo sapiens) (UniProt P35348+P35368)", "Ratio": 6}
{"smiles-notation": "CC(C)Oc1ccccc1N1CCN(Cc2cc(CO)cs2)CC1", "subject-of-test": "Adrenergic receptors; alpha-1 A & B (Homo sapiens) (UniProt P35348+P35368)", "Ratio": "> 15"}
{"smiles-notation": "COc1ccccc1N1CCN(Cc2ccc(CN3CCCCC3=O)s2)CC1", "subject-of-test": "Adrenergic receptors; alpha-1 A & B (Homo sapiens) (UniProt P35348+P35368)", "Ratio": "> 357"}

# next compound below
-- ask Recorded Ratio for COc1ccccc1N1CCN(Cc2ccc(CN3CCCC3=O)s2)CC1 with Adrenergic receptors; alpha-1 A & B (Homo sapiens) (UniProt P35348+P35368), please?
-- reply > 125

====

molecular target: Alpha adrenergic receptor (1a and 1d) (Homo sapiens) (UniProt P35348+P25100); experiment: Relative binding to alpha1d and alpha-1a receptors (ratio of Ki); type: protein assay
endpoint-label: Ratio

Example cases with answers are listed next.
{"smiles-notation": "COc1ccccc1N1CCN(Cc2ccc(CO)s2)CC1", "experimental-result": 0.7}
{"smiles-notation": "COc1ccccc1N1CCN(Cc2ccc(CN3CCCC3=O)s2)CC1", "experimental-result": 0.6}
{"smiles-notation": "COc1ccccc1N1CCN(Cc2ccc(CN3CCCCC3=O)s2)CC1", "experimental-result": 0.9}
{"smiles-notation": "CC(C)Oc1ccccc1N1CCN(Cc2cc(CO)cs2)CC1", "experimental-result": 1}
{"smiles-notation": "COc1ccccc1N1CCN(Cc2ccc(Br)s2)CC1", "experimental-result": 0.7}

A. COc1ccccc1N1CCN(Cc2ccc(CN3CCCCCC3=O)s2)CC1
B. CC(C)Oc1ccccc1N1CCN(Cc2ccc(CN3CCCCC3=O)s2)CC1
C. CC(C)Oc1ccccc1N1CCN(Cc2cc(CN3CCCCCC3=O)cs2)CC1
-- ask Order field: Ratio | Direction: descending (largest first) Answer by listing the labels in the requested order.
-- reply B, C, A
(B: 54, C: 26, A: 0.7)

Where do these numbers come from? They come from ChEMBL document CHEMBL1134860.
